measurement.protocol: Solubility in 0.1 N HCl, PBS buffer, FaSSIF and FeSSIF
Type: physicochemical
test.settings: FaSSIF, pH 6.5, fassif, thermodynamic from solid, fasting state fluid, ambient temperature; read-out: Solubility FaSSIF Ph 6.5
Use 600 µg/mL as the dividing line for solubility at 10 min, with the line itself on the label 1 side and lower values as label 0.

molecule	class.assignment
CCCCC(CC)COC(=O)Oc1cc(/C=C(\C#N)C(=O)N(CC)CC)cc([N+](=O)[O-])c1O (stereo not drawn)	label 0
CCN(CC)C(=O)/C(C#N)=C/c1cc(OC(=O)OCC2CCCCC2)c(O)c([N+](=O)[O-])c1	label 0
CCN(CC)C(=O)/C(C#N)=C/c1cc(OC(=O)OCCc2cccs2)c(O)c([N+](=O)[O-])c1	label 0
CCN(CC)C(=O)/C(C#N)=C/c1cc(OC(=O)OCC(=O)O)c(O)c([N+](=O)[O-])c1	label 1
CCN(CC)C(=O)/C(C#N)=C/c1cc(OC(=O)OCC(C)C)c(O)c([N+](=O)[O-])c1	label 0
CCN(CC)C(=O)/C(C#N)=C/c1cc(OC(=O)OC2CCCCC2)c(O)c([N+](=O)[O-])c1	label 1

[Q] Is solubility at 10 min at least 600 µg/mL? Consider CCN(CC)C(=O)/C(C#N)=C/c1cc(OC(=O)OCc2ccccc2)c(O)c([N+](=O)[O-])c1
[A] label 0

[Q] API: above_or_equal(metric=solubility at 10 min, cutoff=600 µg/mL) for item CCOC(=O)Oc1cc(/C=C(\C#N)C(=O)N(CC)CC)cc([N+](=O)[O-])c1O
[A] label 0

[Q] I'd appreciate it if you could say whether CCC(CC)OC(=O)Oc1cc(/C=C(\C#N)C(=O)N(CC)CC)cc([N+](=O)[O-])c1O has solubility at 10 min at least equal to 600 µg/mL.
[A] label 1

----------
Below is a list of entries, each paired with its recorded Papp A→B at 60 min value.
measurement.protocol: Permeability in Caco-2 cells, apical to basolateral
Assay type: in vitro ADME
Parameters: dose or concentration left out as unconfirmed
test.settings: human; 21d Caco-2 monolayer, apical pH 6.5 to basolateral pH 7.4, 60 minutes

Illustrative cases are given below, each with its answer.
compound	Papp A→B at 60 min
CCN(CC)C(=O)/C(C#N)=C/c1cc(O)c(O)c([N+](=O)[O-])c1 [entacapone]	17 ×10⁻⁶ cm/s
CCN(CC)C(=O)/C(C#N)=C/c1cc(OC(=O)OC2CC3CCC2(C)C3(C)C)c(O)c([N+](=O)[O-])c1 (stereo not shown) [Compound 67]	14.8 ×10⁻⁶ cm/s
CCN(CC)C(=O)/C(C#N)=C/c1cc(OC(=O)OC(C)C)c(O)c([N+](=O)[O-])c1 [Compound 7]	31 ×10⁻⁶ cm/s
CCCCCCCCOC(=O)Oc1cc(/C=C(\C#N)C(=O)N(CC)CC)cc([N+](=O)[O-])c1O [Compound 35]	> 42 ×10⁻⁶ cm/s
CCC(CC)OC(=O)Oc1cc(/C=C(\C#N)C(=O)N(CC)CC)cc([N+](=O)[O-])c1O [Compound 10]	22.4 ×10⁻⁶ cm/s

[Q] For CCN(CC)C(=O)/C(C#N)=C/c1cc(OC(=O)OC(C)(C)C(=O)OC)c(O)c([N+](=O)[O-])c1 [Compound 20] , write its Papp A→B at 60 min.
[A] 11.7 ×10⁻⁶ cm/s

[Q] Determine from records and report Papp A→B at 60 min for CCN(CC)C(=O)/C(C#N)=C/c1cc(OC(=O)OCc2ccc([N+](=O)[O-])cc2)c(O)c([N+](=O)[O-])c1 [Compound 27]
[A] 18.1 ×10⁻⁶ cm/s

[Q] Provide measured Papp A→B at 60 min value, entry: CCOC(=O)Oc1cc(/C=C(\C#N)C(=O)N(CC)CC)cc([N+](=O)[O-])c1O [Compound 71]
[A] 7.7 ×10⁻⁶ cm/s

[Q] Give recorded Papp A→B at 60 min. C=CCOC(=O)Oc1cc(/C=C(\C#N)C(=O)N(CC)CC)cc([N+](=O)[O-])c1O [Compound 65]
[A] 8.5 ×10⁻⁶ cm/s

[Q] Please give the documented Papp A→B at 60 min of CCOC(=O)C(C)(C)OC(=O)Oc1cc(/C=C(\C#N)C(=O)N(CC)CC)cc([N+](=O)[O-])c1O [Compound 26]
[A] < 5.1 ×10⁻⁶ cm/s

----------
measurement.protocol: Stability in TPGS/PG over 22 h
Assay type: physicochemical
test.settings: TPGS/PG, ambient temperature, 8 h
Recorded Amount of compound values for a group of compounds are listed next.
Answer with the figure and its unit, nothing else.

Please review the entries below; each comes with its answer.
compound	Amount of compound
CCCC(C)OC(=O)Oc1cc(/C=C(\C#N)C(=O)N(CC)CC)cc([N+](=O)[O-])c1O (stereo not shown)	1.12 mg/mL
CCCCCCCCOC(=O)Oc1cc(/C=C(\C#N)C(=O)N(CC)CC)cc([N+](=O)[O-])c1O	1.36 mg/mL
CCN(CC)C(=O)/C(C#N)=C/c1cc(OC(=O)OCC2CCCCC2)c(O)c([N+](=O)[O-])c1	1.39 mg/mL

[Q] Fill in Amount of compound for record CCCCC(CC)COC(=O)Oc1cc(/C=C(\C#N)C(=O)N(CC)CC)cc([N+](=O)[O-])c1O (stereo not shown)
[A] 1.23 mg/mL

----------
Recorded solubility at 10 min, one value per entry.
measurement.protocol: Solubility in 0.1 N HCl, PBS buffer, FaSSIF and FeSSIF
Format: physicochemical
test.settings: PBS buffer, pH 7.4, aqueous buffer, thermodynamic from solid, ambient temperature; read-out: Solubility PBS Ph 7.4
Answer in µg/mL, number only, no unit symbol.

molecule	solubility at 10 min / µg/mL
CCN(CC)C(=O)/C(C#N)=C/c1cc(OC(=O)OCC(=O)O)c(O)c([N+](=O)[O-])c1 [Compound 146]	830

Let us move to another entry and its solubility at 10 min.
[Q] For the molecule CCCOC(=O)Oc1cc(/C=C(\C#N)C(=O)N(CC)CC)cc([N+](=O)[O-])c1O [Compound 41] , give its measured solubility at 10 min value.
[A] 470

----------
measurement.protocol: Solubility in 0.1 N HCl, PBS buffer, FaSSIF and FeSSIF
Format: physicochemical
test.settings: FeSSIF, pH 5, fessif, thermodynamic from solid, Table 11; read-out: Solubility FeSSIF pH 5.0
measurement.type: solubility at 10 min
Don't forget the unit after the value.

compound	solubility at 10 min
CCCC(C)OC(=O)Oc1cc(/C=C(\C#N)C(=O)N(CC)CC)cc([N+](=O)[O-])c1O (stereo not drawn)	170 µg/mL
CCCCC(CC)COC(=O)Oc1cc(/C=C(\C#N)C(=O)N(CC)CC)cc([N+](=O)[O-])c1O (stereo not drawn)	190 µg/mL
CCC(CC)OC(=O)Oc1cc(/C=C(\C#N)C(=O)N(CC)CC)cc([N+](=O)[O-])c1O	1330 µg/mL

[Q] Entry CCCCCCCCOC(=O)Oc1cc(/C=C(\C#N)C(=O)N(CC)CC)cc([N+](=O)[O-])c1O needs its solubility at 10 min filled in; supply it.
[A] 150 µg/mL

[Q] Quickly give me recorded solubility at 10 min for CCN(CC)C(=O)/C(C#N)=C/c1cc(OC(=O)OCC2CCCCC2)c(O)c([N+](=O)[O-])c1
[A] 30 µg/mL

[Q] # return recorded solubility at 10 min for input CCN(CC)C(=O)/C(C#N)=C/c1cc(O)c(O)c([N+](=O)[O-])c1
[A] 990 µg/mL

----------
measurement.protocol: Solubility in Labrasol and TPGS/PG formulations
Format: physicochemical
test.settings: Labrasol, oil or lipid; read-out: Solubility Labrasol ®
From the text: Selected lipophilic carbonate compounds of formula I with promising Caco-2 permeabilities are formulated with different lipids/lipophilic excipients and/or micelles forming compounds in order to increase their solubilities. […]
Recorded solubility, one value per entry.
Express the result in mg/mL but write the number alone.

compound	measurement.type	data.value
CCN(CC)C(=O)/C(C#N)=C/c1cc(O)c(O)c([N+](=O)[O-])c1 [entacapone]	solubility	23
CCCCC(CC)COC(=O)Oc1cc(/C=C(\C#N)C(=O)N(CC)CC)cc([N+](=O)[O-])c1O (stereo not drawn) [Compound 15]	solubility	50
CCN(CC)C(=O)/C(C#N)=C/c1cc(OC(=O)OCC2CCCCC2)c(O)c([N+](=O)[O-])c1 [Compound 57]	solubility	22
CCC(CC)OC(=O)Oc1cc(/C=C(\C#N)C(=O)N(CC)CC)cc([N+](=O)[O-])c1O [Compound 10]	solubility	22

Moving on to the next compound.
[Q] Read the entry CCCC(C)OC(=O)Oc1cc(/C=C(\C#N)C(=O)N(CC)CC)cc([N+](=O)[O-])c1O (stereo not drawn) [Compound 63] and write its reported solubility.
[A] 10
